# assay details: Tmax in Sprague-Dawley rat at 10 mg/kg, iv
# Type: ADME, organism-based
# Parameters: dose 10 mg/kg, route intravenous
# stated conditions: in vivo
recorded metric: Tmax (min)
Only the number, expressed in min, is required.

Field request: Tmax | item: "N#Cc1ccccc1Cn1c(N2CCC[C@@H](N)C2)nc2ccsc2c1=O"
2.4

----------
# assay details: Oral bioavailability in Beagle dog at 20 mg/kg
# Format: ADME, organism-based, Canis lupus familiaris
# stated conditions: in vivo
recorded metric: bioavailability (%)
Only the number, expressed in %, is required.

Field request: bioavailability | item: "N#Cc1ccccc1Cn1c(N2CCC[C@@H](N)C2)nc2ccsc2c1=O"
42.3

Hello, the source for this data is ChEMBL document CHEMBL1649374, in case you need it.
